Source listed as ChEMBL document CHEMBL1131938.

Molecular target: Neutrophil elastase (Homo sapiens) (UniProt P08246)
Sequence (whole entry): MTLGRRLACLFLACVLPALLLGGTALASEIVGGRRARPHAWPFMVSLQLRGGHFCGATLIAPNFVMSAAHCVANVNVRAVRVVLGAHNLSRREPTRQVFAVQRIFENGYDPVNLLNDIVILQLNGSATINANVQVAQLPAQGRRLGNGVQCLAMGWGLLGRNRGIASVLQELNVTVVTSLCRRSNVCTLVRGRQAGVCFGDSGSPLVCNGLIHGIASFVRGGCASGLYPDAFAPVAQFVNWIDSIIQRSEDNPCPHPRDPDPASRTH
Test: Inhibitory activity against human neutrophil elastase after 30 min incubation
Parameters: concentration or dose not given beside the values
Recorded Metric: inhibition (%)

CC(=O)N[C@]1(Cc2ccccc2)CC(=O)N(OS(C)(=O)=O)C1=O | 56
CC(=O)N[C@@H](CC(C)C)C(=O)N[C@]1(Cc2ccccc2)CC(=O)N(OS(C)(=O)=O)C1=O | 63

A = CC(=O)N[C@@H](CC(C)C)C(=O)N[C@@]1(Cc2ccccc2)CC(=O)N(OS(C)(=O)=O)C1=O
B = CC(=O)N[C@H](CC(C)C)C(=O)N[C@@]1(Cc2ccccc2)CC(=O)N(OS(C)(=O)=O)C1=O
C = CC(=O)N[C@H](CC(C)C)C(=O)N[C@]1(Cc2ccccc2)CC(=O)N(OS(C)(=O)=O)C1=O
D = CCCCOC(=O)N[C@@H](CC(C)C)C(=O)N[C@]1(Cc2ccccc2)CC(=O)N(OS(C)(=O)=O)C1=O
// query Rank ascending by inhibition. Your reply should list the labels following the order given in the request.
// result B, A, D, C
(B: 6%, A: 24%, D: 48%, C: 72%)

----------
molecular target: Chymotrypsinogen A (Bos taurus) (UniProt P00766); assay: Inhibitory activity against Chymotrypsinogen enzyme was determined
Recorded Metric: k obs / 1 (M⁻¹ s⁻¹)

CC(=O)N[C@]1(Cc2ccccc2)CC(=O)N(OS(C)(=O)=O)C1=O | 217

a = CC(=O)N[C@@H](CC(C)C)C(=O)N[C@]1(Cc2ccccc2)CC(=O)N(OS(C)(=O)=O)C1=O
b = CC(=O)N[C@H](CC(C)C)C(=O)N[C@]1(Cc2ccccc2)CC(=O)N(OS(C)(=O)=O)C1=O
c = CC(=O)N[C@H](CC(C)C)C(=O)N[C@@]1(Cc2ccccc2)CC(=O)N(OS(C)(=O)=O)C1=O
// query Rank ascending by k obs / 1. Your reply should list the labels following the order given in the request.
// result c, a, b
